System: MDR1
method.summary: MDCK-MDR1 permeability assay
Format: in vitro ADME
details: dog, Papp (B→A) divided by Papp (A→B), 3 μM test compound, read-out: Efflux ratio (ER)
measured.metric: efflux ratio at 2 h, 3 μM

[P] CS(=O)(=O)N[C@H]1CCN(c2ccccn2)CC1COC1CCC(c2cncnc2)CC1 (stereo partly drawn)
[Q] CS(=O)(=O)N[C@H]1CCN(c2ccccn2)CC1COC1CCC(c2ccncn2)CC1 (stereo partly drawn)
(Q) Which is greater in efflux ratio at 2 h, 3 μM, the first item P or the second item Q ? Label of pick, please.
(A) P

---

Test system: MDR1
method.summary: MDCK-MDR1 permeability assay
Type: in vitro ADME
details: dog, apical to basolateral, 3 μM test compound, 2 hours at 37 degrees C
measured.metric: Papp A→B at 2 h, 3 μM (×10⁻⁶ cm/s)

The cases that follow already have their Papp A→B at 2 h, 3 μM on record.
{"compound": "CS(=O)(=O)N[C@H]1CCN(c2ccccn2)CC1COC1CCC(c2ncccn2)CC1 (some centres unmarked)", "observed.measurement": 1.6}
{"compound": "CS(=O)(=O)N[C@H]1CCN(c2ccccn2)CC1COC1CCC(c2cnccn2)CC1 (some centres unmarked)", "observed.measurement": 0.97}
{"compound": "CS(=O)(=O)N[C@H]1CCN(c2ccccn2)CC1COC1CCC(c2cncnc2)CC1 (some centres unmarked)", "observed.measurement": 1}

[A] CS(=O)(=O)N[C@H]1CCN(c2ncccc2F)CC1COC1CCC(c2ccccc2)CC1 (some centres unmarked)
[B] CS(=O)(=O)N[C@H]1CCN(c2ncccn2)CC1COC1CCC(c2ccccc2)CC1 (some centres unmarked)
(Q) When the recorded Papp A→B at 2 h, 3 μM values are compared, which is smaller: that of A or that of B ? Label of pick, please.
(A) A

[1] CS(=O)(=O)N[C@H]1CCN(c2ccccn2)CC1COC1CCC(c2ccccc2O)CC1 (some centres unmarked)
[2] CS(=O)(=O)N[C@H]1CCN(c2nccc3ocnc23)CC1COC1CCC(c2ccccc2)CC1 (some centres unmarked)
(Q) When the recorded Papp A→B at 2 h, 3 μM values are compared, which is smaller: that of 1 or that of 2 ? Label of pick, please.
(A) 1
(1: 0.7 ×10⁻⁶ cm/s, 2: 1.9 ×10⁻⁶ cm/s)

[P] CS(=O)(=O)N[C@H]1CCN(Cc2cccnc2)CC1COC1CCC(c2ccccc2)CC1 (some centres unmarked)
[Q] CS(=O)(=O)N[C@H]1CCN(c2ccccn2)CC1COC1CCC(c2ccc(O)cc2)CC1 (some centres unmarked)
(Q) When the recorded Papp A→B at 2 h, 3 μM values are compared, which is smaller: that of P or that of Q ? Label of pick, please.
(A) Q

[1] CS(=O)(=O)N[C@H]1CCN(c2ccncn2)CC1COC1CCC(c2ccccc2)CC1 (some centres unmarked)
[2] CS(=O)(=O)N[C@H]1CCN(c2ccccn2)CC1COC1CCC(c2ccnnc2)CC1 (some centres unmarked)
(Q) Which is greater in Papp A→B at 2 h, 3 μM, the first item 1 or the second item 2 ? Label of pick, please.
(A) 1

---

target.system: UniProt O43614
Sequence (O43614 1-444): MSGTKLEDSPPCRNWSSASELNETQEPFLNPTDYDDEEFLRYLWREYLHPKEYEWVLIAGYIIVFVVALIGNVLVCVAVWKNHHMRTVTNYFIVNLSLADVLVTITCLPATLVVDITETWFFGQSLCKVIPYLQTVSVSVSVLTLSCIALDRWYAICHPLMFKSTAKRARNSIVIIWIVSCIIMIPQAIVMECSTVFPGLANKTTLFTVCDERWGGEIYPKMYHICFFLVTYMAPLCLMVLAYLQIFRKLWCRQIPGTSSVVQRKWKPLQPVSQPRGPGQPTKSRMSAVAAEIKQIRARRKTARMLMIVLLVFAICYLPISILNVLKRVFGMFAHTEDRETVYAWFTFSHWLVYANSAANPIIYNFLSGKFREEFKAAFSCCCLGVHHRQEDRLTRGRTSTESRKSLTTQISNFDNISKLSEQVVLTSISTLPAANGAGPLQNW
method.summary: Human OX2R IP1 assay
details: T-Rex CHO cells stably overexpressing human OX2R; IP1 accumulation, 1 hr at 37 degrees C
Protocol: T-Rex CHO cells stably overexpressing the human orexin-2 receptor (OX2R) were induced overnight with 1 μg/mL of doxycycline in a T225 flask. 24 hours post induction, cells were lifted with accutase and plated into a 384-well proxy plate at 30,000 cells/well. […] The plates were allowed to incubate for 1 hour at room temperature and were then read in the EnVision® multimode plate reader, measuring inositol phosphate levels. […]
pEC50: −log10 of the molar value.
Measured pEC50 values are reported for all entries that follow.

The cases that follow already have their pEC50 on record.
{"test.smiles": "CS(=O)(=O)N[C@H]1CCN(c2ccccn2)C[C@H]1CO[C@H]1CC[C@@H](c2ccncn2)CC1", "target.system": "UniProt O43614", "pEC50": "< 6.00"}
{"test.smiles": "CS(=O)(=O)N[C@H]1CCN(c2nccc3ocnc23)C[C@H]1CO[C@H]1CC[C@@H](c2ccccc2)CC1", "target.system": "UniProt O43614", "pEC50": "> 7.00"}
{"test.smiles": "CS(=O)(=O)N[C@H]1CCN(c2nccc3ncnn23)C[C@H]1CO[C@H]1CC[C@@H](c2ccccc2)CC1", "target.system": "UniProt O43614", "pEC50": "6.00 to 7.00"}

"CS(=O)(=O)N[C@H]1CCN(c2ccccn2)C[C@H]1CO[C@H]1CC[C@@H](c2ccccc2O)CC1" yielded pEC50 of 6.00 to 7.00

"CS(=O)(=O)N[C@H]1CCN(c2ccccn2)C[C@H]1CO[C@H]1CC[C@@H](c2cccc(O)c2)CC1" yielded pEC50 of > 7.00

"CS(=O)(=O)N[C@H]1CCN(c2ccccn2)C[C@H]1CO[C@H]1CC[C@@H](c2ccc(O)cc2)CC1" yielded pEC50 of > 7.00

"CS(=O)(=O)N[C@H]1CCN(c2ccncn2)C[C@H]1CO[C@H]1CC[C@@H](c2ccccc2)CC1" yielded pEC50 of > 7.00
